These data points were gathered from ChEMBL document CHEMBL1154198.

Would you mind telling me the reported EC50 of each entry?
system: Plasmodium falciparum; test: ST_JUDE: Plasmodium falciparum 3D7 EC50 (uM) as measured by SYBR green dye; assay type: functional, organism-based

[Q] Provide measured EC50 value, entry: Cc1n(CC(O)COc2cccc(Cl)c2)c2ccccc2[n+]1C (centres undefined)
[A] > 15 µM

[Q] Indicate the recorded EC50 value for this compound: Cc1cc(N2CCN(C)CC2)nc(N2CCN(C(=O)c3ccc(C(C)(C)C)cc3)CC2)n1
[A] > 15 µM

[Q] Given the compound O=C(Cc1ccccc1)N(Cc1cccnc1)c1nc2ccc(Cl)cc2s1 , write its reported EC50.
[A] > 15 µM

[Q] Identify measured EC50 corresponding to CCCCC(=O)NC(c1ccc(C(C)C)cc1)c1cc([N+](=O)[O-])c2cccnc2c1O (centres undefined)
[A] > 15 µM

====

system: Plasmodium falciparum; assay: ST_JUDE: Plasmodium falciparum K1 EC50 (uM) as measured by SYBR green dye; assay type: functional, organism-based
Give EC50 for every item shown.
Give your result in nM as a bare value.

[Q] Give the measured EC50 for OC(CNC1CCCCC1)Cn1c2ccc(Cl)cc2c2cc(Cl)ccc21 (stereo not drawn)
[A] 172

[Q] Give me measured EC50, please, for this molecule: CCc1cc(-c2[nH]nc(C)c2Oc2ccccc2)c(O)cc1OC(C)C
[A] 1460

[Q] Supply reported EC50 belonging to this molecule: CCCOCc1cc(CN2CCN(c3cccc(Cl)c3)CC2)c(O)c2ncccc12
[A] 896

[Q] Dear colleague, please send me the reported EC50 for CCN(CC)S(=O)(=O)c1ccc(C(=O)NNc2nc3c(OC)ccc(OC)c3s2)cc1 when you can.
[A] 3930

[Q] Return the recorded EC50 value; entry: CCOC(=O)c1cnc2c(C)cc(C)cc2c1NCc1cccnc1
[A] 6180

[Q] Provide one value: measured EC50 of CO/C(O)=C1\C(C)=NC2=C(C(=O)CC(c3ccccc3Cl)C2)C1c1ccc(OC)c(OC)c1 (stereo not drawn)
[A] 9390

[Q] Supply reported EC50 belonging to this molecule: CCc1ccc(S(=O)(=O)NC2=C/C(=N\c3ccccc3)C(=O)c3ccccc32)cc1
[A] 472

[Q] Query EC50 for COc1ccc(C2CC(=O)C3=C(C2)NC(=O)CC3c2ccc(C(F)(F)F)cc2)cc1OC (stereo not drawn)
[A] 872

[Q] Tell us which EC50 value is on record for COc1ccc(CCNC(=S)Nc2cc(Cl)ccc2Cl)cc1OC
[A] 2940

[Q] Item OCCN1CCN(c2nc(Nc3ccc(F)cc3)c3cnn(-c4ccccc4)c3n2)CC1 : provide EC50
[A] 1380

[Q] Answer with the recorded EC50 for the molecule listed here: CCCCC(=O)NC(c1ccc(C(C)C)cc1)c1cc([N+](=O)[O-])c2cccnc2c1O (stereo not drawn)
[A] 5130

[Q] Find the measured EC50 of COc1ccc(C2C3=C(O)CC(c4ccccc4)CC3=NC(C)=C2C(=O)OCC(C)C)cc1OC (stereo not drawn) and report it.
[A] 3920

[Q] Please look at this molecule and report its EC50: Cc1ccc2c(c1)N(C)/C(=C/c1sc3ccccc3[n+]1CCO)S2
[A] 440

[Q] Specify measured EC50 for CC(=O)N1CCc2c(sc(NC(=O)c3cc([N+](=O)[O-])ccc3Cl)c2C#N)C1 .
[A] 1320

[Q] Identify the reported EC50 for the following entry. Cn1c(=O)c2c(-c3ccc(C(C)(C)C)cc3)n(-c3cc(Cl)ccc3O)cc2n(C)c1=O
[A] 1220

[Q] Report EC50 for Cc1cccc(NC2=C(N3CCCCC3)C(=O)c3ccccc3C2=O)c1
[A] 181

[Q] Supply EC50 value. Item: CCOC(=O)c1cnc2c(C)cccc2c1NCCCN1CCOCC1
[A] 1430

====

assay: ST_JUDE: Cytotoxicity using luciferase to measure ATP as an indicator of the viability of human foreskin fibroblast cells (BJ); format: toxicity, cell-based
Provide the recorded EC50 for the entries that follow.

[Q] Hello, please tell me recorded EC50 for this one: CC[n+]1ccccc1C=Cc1ccc(N(C)C)cc1
[A] > 45.3 µM

[Q] Return the recorded EC50 value; entry: CCN(CC)c1ccc(/C=C/c2ccc3ccc(OC)cc3[n+]2CC)cc1
[A] > 16.8 µM

[Q] Note down EC50 recorded for CCOc1ccc(/C=C/c2nc(=O)c3ccccc3o2)cc1
[A] > 39.9 µM

[Q] Determine its reported EC50: Cc1cc(Nc2ccc(Br)c(C)c2)n2nc(C)nc2n1
[A] > 37.8 µM

[Q] Provide one value: measured EC50 of CC(C)CN1C(=O)c2ccccc2C(C(=O)Nc2ccc(F)cc2F)C1c1cccs1 (configuration not stated)
[A] > 43.3 µM

[Q] Please supply the value of reported EC50 for the item COc1ccccc1C1CC2=NC(C)=C(C(=O)OC(C)C)C(c3ccc(Cl)cc3)C2=C(O)C1 (configuration not stated)
[A] > 29.9 µM

[Q] For the compound CN(C)c1cc[n+](CC(=O)c2ccc(Br)cc2)cc1 , give its reported EC50.
[A] > 30.8 µM

====

test system: Plasmodium falciparum; assay: ST_JUDE: Plasmodium falciparum K1 EC50 (uM) as measured by SYBR green dye; type: functional, organism-based
assay.endpoint: EC50 (µM)
Provide the reading as a plain figure in µM.

[Q] Please report the measured EC50 for COc1ccccc1C(=O)N(Cc1cccnc1)c1nc2c(Cl)cccc2s1
[A] 6.66

[Q] Read the entry Cc1cc(O)nc(-n2nc(C)cc2NC(=O)c2cccc(C(F)(F)F)c2)n1 and write its reported EC50.
[A] 1.5

[Q] Give the value of EC50 reported for the following: O=C(Nc1cccc(Cl)c1)C1c2ccccc2C(=O)N(C2CCCC2)C1c1cccs1 (stereo not drawn)
[A] 0.326

[Q] Return the recorded EC50 value; entry: Cc1cccc2sc(N(Cc3cccnc3)C(=O)c3ccc(C#N)cc3)nc12
[A] 3.08

[Q] For the molecule COc1ccc(N2CCN(C(CNC(=O)CC(C)(C)C)c3ccc4c(c3)OCO4)CC2)cc1 (stereo not drawn) , give its measured EC50 value.
[A] 2.01

[Q] Dear colleague, please send me the reported EC50 for C=CC[n+]1c(/C=C2\C=CC=CN2CC)ccc2cc(C)ccc21 when you can.
[A] 2.53

[Q] Tell me its EC50 given CC(C)(C)CNc1cc(N2CCN(C(=O)c3cccs3)CC2)ccc1[N+](=O)[O-] as the entry.
[A] 4.76

[Q] Return reported EC50. Input molecule: CCOCc1cc(CN2CCN(c3cccc(C(F)(F)F)c3)CC2)c(O)c2ncccc12
[A] 1.49

====

system: Trypanosoma brucei; assay: ST_JUDE: Cytotoxicity using luciferase to measure ATP as an indicator of the viability of Trypanosoma brucei; assay type: functional, organism-based
For each of the molecules below, state its log10 EC50.
Reminder: these figures are log10 of reported EC50, in µM before transformation.

[Q] Give log10 EC50 for this entry on Trypanosoma brucei: CCc1ccc(S(=O)(=O)NC2=C/C(=N\c3ccccc3OC)C(=O)c3ccccc32)cc1
[A] 0.30

[Q] Report its log10 EC50 with Trypanosoma brucei as the test system: CCCO/C(O)=C1\C(C)=NC2=C(C(=O)CC(c3ccc(OC)cc3)C2)C1c1ccccc1Cl (configuration not stated)
[A] 0.71

[Q] Give the observed log10 EC50 of Cc1ccc2c(c1)C=C/C(=C\c1sc3ccccc3[n+]1C)N2C for Trypanosoma brucei.
[A] -0.76

[Q] # return log10 EC50 of CC(C)CN1C(=O)c2ccccc2C(C(=O)Nc2cccc(C#N)c2)C1c1cccs1 (configuration not stated) (system: Trypanosoma brucei)
[A] 0.50

[Q] Give Trypanosoma brucei log10 EC50 for the following molecule: O=C1C(Nc2ccc(Br)cc2)=C(n2nnc3ccccc32)C(=O)c2ccccc21
[A] 0.12

[Q] # assay system Trypanosoma brucei: give log10 EC50 of OC(CNC1CCCC1)Cn1c2ccc(Cl)cc2c2cc(Cl)ccc21 (configuration not stated)
[A] 0.31

[Q] Give log10 EC50 for CCOc1ccc(N(C(C)=O)C2=C(N(C)C)C(=O)c3ccccc3C2=O)cc1 tested on Trypanosoma brucei.
[A] 0.09

[Q] Tell me log10 EC50 of CCCCCCn1c(=N)n(CC(O)COc2ccccc2C)c2ccccc21 (configuration not stated) when tested on Trypanosoma brucei.
[A] 0.57

[Q] State log10 EC50 on Trypanosoma brucei. Entry: CCCCOc1ccc(N(C(C)=O)C2=C(N3CCOCC3)C(=O)c3ccccc3C2=O)cc1
[A] 0.60

[Q] Quote log10 EC50 with test system Trypanosoma brucei for CC(=O)N(C1=C(N(C)C)C(=O)c2ccccc2C1=O)c1ccc(F)cc1
[A] -0.24

[Q] Return reported log10 EC50 for target or system Trypanosoma brucei, item CC(C)NCC(O)Cn1c2ccc(Cl)cc2c2cc(Cl)ccc21 (configuration not stated) .
[A] -0.06

[Q] Specify log10 EC50 for COc1ccc(C2CC3=NC(C)=C(C(=O)OC(C)C)C(c4ccccc4Cl)C3=C(O)C2)cc1OC (configuration not stated) , system Trypanosoma brucei.
[A] 0.83

[Q] Please tell me the measured log10 EC50 for OC(CNC1CCCC1)Cn1c2ccccc2c2ccccc21 (configuration not stated) ; system: Trypanosoma brucei.
[A] 0.53

[Q] # lookup: Trypanosoma brucei log10 EC50, key = COc1cccc(NC(=O)C2c3ccccc3C(=O)N(CC(C)C)C2c2cccs2)c1 (configuration not stated)
[A] 0.88

[Q] Give log10 EC50 for COC(=O)c1ccc(NC(=O)C2c3ccccc3C(=O)N(CC(C)C)C2c2cccs2)cc1 (configuration not stated) tested on Trypanosoma brucei.
[A] 0.37

[Q] Please report the measured log10 EC50 for CC(C)c1ccc(S(=O)(=O)NC2=C/C(=N\c3ccc(O)cc3)C(=O)c3ccccc32)cc1 tested on Trypanosoma brucei.
[A] -0.12
